compounds and their reported ED50
- System: phenyl-p-quinone writhing
- test_description: phenyl-p-quinone writhing assay (analgesia)
- Format: in vivo, mice
- applied_conditions: Mus musculus, sc, read-out: ED50, inhibition of writhing
Note: unit mg/kg is implicit; provide only the numeric part.

For the compound CN1CCC(c2n[nH]c3ccccc23)CC1 , what ED50 is on record?
0.26

For the compound Br.CCn1nc(C2CCN(C)CC2)c2ccccc21 , what ED50 is on record?
0.65

For the compound CCC(=O)O[C@](Cc1ccccc1)(c1ccccc1)[C@H](C)CN(C)C [propoxyphene, reference compound] , what ED50 is on record?
3.9

For the compound CC(=O)n1nc(C2CCN(C)CC2)c2ccccc21.Cl , what ED50 is on record?
0.71

For the compound CC(C)=CCN1CCC2(C)c3cc(O)ccc3CC1C2C (centres unmarked) [pentazocine, reference compound] , what ED50 is on record?
1.3

###

compounds and their reported MTZ, % protected at indicated dose
- System: metrazol lethality (pentylenetetrazol)
- test_description: metrazol lethality (MTZ), anticonvulsant activity
- Type: in vivo, male mice
- applied_conditions: @ 60 mg/kg i.p.
Note: unit % is implicit; provide only the numeric part.

- substance_smiles: "Fc1ccc2c(C3CCN(C(=S)Nc4ccccc4)CC3)nn(-c3ccccc3)c2c1"
  readout_unit: "%"
  MTZ, % protected at indicated dose: 17
- substance_smiles: "CC(=O)N1CCC(c2nn(-c3ccccc3)c3cc(Br)ccc23)CC1"
  readout_unit: "%"
  MTZ, % protected at indicated dose: 0
- substance_smiles: "CNC(=O)N1CCC(c2nn(-c3ccc(C(F)(F)F)cc3)c3ccccc23)CC1"
  readout_unit: "%"
  MTZ, % protected at indicated dose: 20

Then this compound:
For the compound CN(C)C(=O)N1CCC(c2nn(-c3ccc(C(F)(F)F)cc3)c3ccccc23)CC1 , what MTZ, % protected at indicated dose is on record?
20
